Target: DRB1*1201 (Homo sapiens, UniProt P01903+P01911, A100R/A169T/D57E/D86V/F55L/H45Y/K41T/L162R/M171V/P40S/Q125H/Q178H/Q39Y/Q99D/R42G/S66L/T262R/V114A/V67L/W38E/Y59H/Y61H/Y89S)
Assay: biochemical
Format: binding
No end group written: not given here.
EXPERIMENTAL_READOUT: IC50 (µM)
Express the result in µM but write the number alone.

INPUT: Give the measured IC50 of YKTLFVDVTSTYHWT [Peptide 90.0241] .
OUTPUT: 3.9

---

Target: HLA-A1 (A*0101) (Homo sapiens, UniProt P04439, A114D/A174V/A182V/D101N/D185E/E176A/E190D/L180R/Q94H/R68K/S129P/T187R/V100A/V91M/W191G)
Assay: biochemical
Assay type: binding
No end group written: not given here.
Attribute: pIC50
# reply with the number alone; pIC50 is -log10 of concentration in mol/L

- MACROMOLECULE_SEQUENCE: "VTDCPYNY [Peptide 9012.0106]"
  pIC50: 7.10

INPUT: Give the measured pIC50 of KSDIVTLTY [Peptide 1593.07] .
OUTPUT: 7.21

INPUT: Give the measured pIC50 of QTRVLAIERY [Peptide 9015.0156] .
OUTPUT: 5.19

INPUT: Give the measured pIC50 of SSNTKANILY [Peptide 1580.08] .
OUTPUT: 6.54

INPUT: Give the measured pIC50 of LTQENYLEY [Peptide 9012.0133] .
OUTPUT: 7.80

INPUT: Give the measured pIC50 of NSDVKHHMY [Peptide 9018.0010] .
OUTPUT: 8.49

INPUT: Give the measured pIC50 of VTADLRIVY [Peptide 1549.50] .
OUTPUT: 5.82

INPUT: Give the measured pIC50 of VSIEWRQRRY [Peptide 9015.0182] .
OUTPUT: 5.10

INPUT: Give the measured pIC50 of YVMAGVGSPY [Peptide 9012.0152] .
OUTPUT: 6.91

Data credit: patent US9340577B2
